Biological target: Polyunsaturated fatty acid 5-lipoxygenase (Rattus norvegicus);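 also: measured in rat peritoneal leukocytes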
Sequence (whole entry): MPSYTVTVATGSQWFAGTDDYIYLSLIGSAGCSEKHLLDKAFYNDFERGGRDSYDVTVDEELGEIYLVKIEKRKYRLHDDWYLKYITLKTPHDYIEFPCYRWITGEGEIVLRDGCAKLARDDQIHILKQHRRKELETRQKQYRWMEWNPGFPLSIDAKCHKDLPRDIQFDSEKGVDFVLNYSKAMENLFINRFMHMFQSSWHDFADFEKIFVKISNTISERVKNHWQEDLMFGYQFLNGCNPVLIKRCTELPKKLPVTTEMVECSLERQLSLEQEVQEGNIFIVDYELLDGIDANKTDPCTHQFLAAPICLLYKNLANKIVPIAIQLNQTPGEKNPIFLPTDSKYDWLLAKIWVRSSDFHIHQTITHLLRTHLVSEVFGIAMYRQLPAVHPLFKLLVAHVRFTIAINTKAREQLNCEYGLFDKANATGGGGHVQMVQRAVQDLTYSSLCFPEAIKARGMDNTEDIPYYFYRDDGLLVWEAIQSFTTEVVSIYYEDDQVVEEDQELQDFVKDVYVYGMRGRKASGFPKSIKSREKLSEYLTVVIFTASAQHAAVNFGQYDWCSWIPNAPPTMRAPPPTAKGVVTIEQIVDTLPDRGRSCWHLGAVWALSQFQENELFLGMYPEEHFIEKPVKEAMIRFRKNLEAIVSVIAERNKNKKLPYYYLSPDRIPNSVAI
Conditions: at 5 µM
MEASURED PROPERTY: inhibition (%)

O=C(CCc1cn(Cc2ccccc2)c2ccccc12)N1CCOCC1	63.8
O=C(CCCc1cn(C(=O)c2ccc(Cl)cc2)c2ccccc12)N1CCOCC1	32.4
Cc1c(CCCC(=O)N2CCOCC2)c2cc(Cl)ccc2n1Cc1ccc(Cl)cc1	37.9
COc1ccc2c(c1)c(CCCOc1cc(F)cc(C3(OC)CCOCC3)c1)c(C)n2Cc1ccccc1	46.5
Cc1c(CCCC(=O)N2CCOCC2)c2cc(Cl)ccc2n1Cc1ccccc1	80.2
O=C(CCc1c[nH]c2ccccc12)N1CCOCC1	33

[1] Cc1[nH]c2ccc(Cl)cc2c1CCCC(=O)N1CCOCC1
[2] O=C(Cc1cn(Cc2ccccc2)c2ccccc12)N1CCOCC1
[3] CS(=O)(=O)N1CCN(C(=O)CCCc2cn(Cc3ccccc3)c3ccccc23)CC1
[4] O=C(Cc1c[nH]c2ccccc12)N1CCOCC1
input: Sort by inhibition, descending. Put the labels in the requested order and write them down.
output: 1, 2, 3, 4
(1: 71.3%, 2: 41.4%, 3: 23.9%, 4: 15.9%)

[a] O=C(Cc1cn(Cc2ccc(Cl)c(Cl)c2)c2ccccc12)N1CCOCC1
[b] Cc1ccc(Cn2cc(CCC(=O)N3CCOCC3)c3ccccc32)cc1
[c] O=C(Cc1cn(C(=O)c2ccc(Cl)cc2)c2ccccc12)N1CCOCC1
input: Sort by inhibition, descending. Put the labels in the requested order and write them down.
output: a, b, c
(a: 81.9%, b: 55.2%, c: 22.4%)
